These entries and their values trace back to paper PMC9014415.

test: Comparative cattle PK, IM compared to SC (NorthWest Biopharm); assay type: in vivo; settings: Aberdeen Angus crossbreed and Limousin crossbreed, bovine, blood, 5 mg/kg free base, IM
READOUT_KIND: Cmax (ng/mL)

{"columns": ["SMILES_TEXT", "READOUT_KIND", "READOUT_VALUE"],
 "data": [
  ["CC(C)CS(=O)(=O)N[C@H]1CC[C@H](Nc2nc(N)c(C(=O)c3c(F)cc(CN(C)C)cc3F)s2)CC1", "Cmax", 360]
]}

====

experiment: PK in female NMRI mice, SC; assay type: in vivo, mouse; settings: mouse, blood, 10 mg/kg, single SC 10 mg free base/kg, read-out: AUC0-24 (converted)
READOUT_KIND: AUC(0-t) (ng·h/mL)

{"columns": ["SMILES_TEXT", "READOUT_VALUE"],
 "data": [
  ["CC(C)CS(=O)(=O)N[C@H]1CC[C@H](Nc2nc(N)c(C(=O)c3c(F)cc(CN(C)C)cc3F)s2)CC1", 2160]
]}

====

assay: Pharmacokinetic studies in male Friesian-Holstein cattle, IV and IM (Ridgeway); format: in vivo; conditions: male, Holstein-Friesian cross, bovine, whole blood, iv, 2 mg/kg, cattle; IV 2 mg/kg; n = 3; mean; read-out: half-life (converted)

{"columns": ["COMPOUND", "half-life"],
 "data": [
  ["CC(C)CS(=O)(=O)N[C@H]1CC[C@H](Nc2nc(N)c(C(=O)c3c(F)cc(CN(C)C)cc3F)s2)CC1 [Compound 2]", "4 h"]
]}

====

test: PK in female NMRI mice, SC; assay type: in vivo, mouse; conditions: mouse, whole blood, 10 mg/kg SC, read-out: T½

{"columns": ["SMILES_TEXT", "half-life at 8 h / h"],
 "data": [
  ["CC(C)CS(=O)(=O)N[C@H]1CC[C@H](Nc2nc(N)c(C(=O)c3c(F)cccc3F)s2)CC1", 1]
]}

====

assay: Bovine liver microsome stability; assay type: in vitro ADME; conditions: intrinsic clearance
READOUT_KIND: Bovine Microsome Cli (BLM: bovine microsomal clearance) (mL/min/g)

{"columns": ["SMILES_TEXT", "QUAL", "READOUT_VALUE"],
 "data": [
  ["CC(C)CS(=O)(=O)N[C@H]1CC[C@H](Nc2nc(N)c(C(=O)c3c(F)cc(CN4CCC4)cc3F)s2)CC1.Cl", "=", 1.3],
  ["CC(C)CS(=O)(=O)N[C@H]1CC[C@H](Nc2nc(N)c(C(=O)c3c(F)cc(CN4CCN(C)CC4)cc3F)s2)CC1.Cl", "<", 0.5],
  ["CC(C)CS(=O)(=O)N[C@H]1CC[C@H](Nc2nc(N)c(C(=O)c3c(F)cc(CN)cc3F)s2)CC1.Cl", "<", 0.5],
  ["CC(C)CS(=O)(=O)N[C@H]1CC[C@H](Nc2nc(N)c(C(=O)c3c(F)cc(CN4CCCC4)cc3F)s2)CC1.Cl", "<", 0.5],
  ["CNCc1cc(F)c(C(=O)c2sc(N[C@H]3CC[C@H](NS(=O)(=O)CC(C)C)CC3)nc2N)c(F)c1.Cl", "=", 0.5],
  ["CC(C)CS(=O)(=O)N[C@H]1CC[C@H](Nc2nc(N)c(C(=O)c3c(F)cc(CN(C)C)cc3F)s2)CC1", "=", 1.1],
  ["CC(C)CS(=O)(=O)N[C@H]1CC[C@H](Nc2nc(N)c(C(=O)c3c(Cl)cccc3Cl)s2)CC1", "=", 1.6],
  ["CC(C)CS(=O)(=O)N[C@H]1CC[C@H](Nc2nc(N)c(C(=O)c3c(F)cc(CN4CCOCC4)cc3F)s2)CC1.Cl", "=", 1],
  ["CC(C)CS(=O)(=O)N[C@H]1CC[C@H](Nc2nc(N)c(C(=O)c3c(Cl)cc(CN(C)C)cc3Cl)s2)CC1.Cl", "=", 7.1],
  ["CC(C)CS(=O)(=O)N[C@H]1CC[C@H](Nc2nc(N)c(C(=O)c3c(F)cc(CCN(C)C)cc3F)s2)CC1.Cl", "=", 0.8]
]}
